PROTOCOL_SUMMARY: amyloid nucleation score (Sup35N fusion, yeast selection) (log enrichment); library NNK2; higher = more nucleation; inactive = no reads after selection;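 note: zero at mode of non-aggregating sequences after 7 days selection at 30°C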
Kindly supply the reported amyloid nucleation score values for the records listed here.
Answers are plain numbers.

>  <SUBSTANCE>
CTLRSLEAVLRVLIGYALRH

>  <ASSAY_METRIC>
amyloid nucleation score

>  <OBSERVED>
0.223

$$$$

For each entry beneath this line, provide reported amyloid nucleation score.
1. VVRKRSKMKLRRIHFSWLVW
2. KYYCATSSVFYASSRQMFKS
3. RLNCLSTWIVYCGPGYVSSV
4. GLFGGIHFVANLGTPPCLDE
5. AWWRGPSFFNPSWKCMNDSS
6. LVCNPYMRDTARSESLGSAW
7. CMKEMLVMLTCYICVSKSLI

Found:
1: 0.744; 2: -0.267; 3: -0.571; 4: 1.56; 5: -0.84; 6: 0.923; 7: 3.66

Please supply amyloid nucleation score for each of the following items, keeping them in order.
1. TLFQFWKYLVSTTCIML
2. FNYDSLVSTRAYPFWTVTVF
3. NWRTCLALNCLTDPAKYLIN
4. STCIMDLSWCKVRRFGSTQV
5. INWCYAPRLYFNHRWWDYCG
6. LLHYGGSFLAAKFRRMSCNE
7. SRVDNVSSAPAISAMGVWCG

Found:
[3.18, 1.52, -0.725, -0.149, 6.59, 0.811, 1.14]

I'm hoping you can list amyloid nucleation score for every substance here, please.
1. DISCCLYRDTPVWERKDYVA
2. VHRLRMGRVWFDKDSDVVGK
3. VPSTIWMTR
4. FFMGGMRASNMDYATSWLK
5. FWLGSVVGNSCAWVITWAIL
6. SGWELYP
7. RKAFIHVDKRLDSSIGTRSG

Found:
-0.506
0.148
0.585
4.3
-0.036
1.91
0.321

Value sought for every listed substance: amyloid nucleation score.
1. FYIKRVTAVNCDTDSSFNVL
2. CNRPGSGTHGRCTVMDSTMG
3. TGELSAQHKASTYYCYCWLF

Found:
1: -0.805; 2: 0.389; 3: 4.43

---

PROTOCOL_SUMMARY: amyloid nucleation score (Sup35N fusion, yeast selection) (log enrichment); library NNK1; higher = more nucleation; inactive = no reads after selection
ASSAY_METRIC: amyloid nucleation score
Give bare numbers.

>  <SEQUENCE_CODE>
NACIQVTGRCCIACVVEFWY

>  <OBSERVED>
1.32

$$$$
>  <SEQUENCE_CODE>
WSCKVMRVYRP

>  <OBSERVED>
0.295

$$$$
>  <SEQUENCE_CODE>
SSSHDSIVFVRRLPHYCRGF

>  <OBSERVED>
0.323

$$$$
>  <SEQUENCE_CODE>
FENCHHYGTARFKDLPRSIV

>  <OBSERVED>
-0.208

$$$$
>  <SEQUENCE_CODE>
GPTCDLRFAFNPHVTYGGHG

>  <OBSERVED>
1.29

$$$$

Need amyloid nucleation score for each of these sequences.
1. GPDRLMDILAMPGGYSMLSM
2. AEWVYITMGYAWLKRSNVVE
3. DSWYRLLLARACNISHVRGR
4. EVVKSITRKPNLVWRYLTLD
5. ISYESWVLRGIARGFQGLVG

Found:
1: 1.03; 2: 0.092; 3: -0.527; 4: 0.588; 5: -1.09

For every item below, please supply its amyloid nucleation score.
1. KRDFVSRLDESPN
2. IRNSEKLNRGCGCGVMHVSV
3. IFSNQLYVERIVLDENKALL
4. ILAWAMGI
5. VRISWRGGGPLSCDVCACMT

Found:
[-0.873, 0.239, 3.62, 0.777, 0.479]

Hi there! I need amyloid nucleation score for each item below, if you can.
1. CIDFKSSGAGSTMSWNLVFN
2. VFSLYSTQKLSRRVIGMLGL
3. EGTLSMALTL

Found:
1: -0.188; 2: 0.725; 3: 0.849

Hey, can you go through the list below and give me amyloid nucleation score for every item?
1. HPLQMISCNKHIQLANMQFR
2. LRRFLPMALDDED

Found:
0.795
-0.676

---

PROTOCOL_SUMMARY: amyloid nucleation score (Sup35N fusion, yeast selection) (log enrichment); library NNK1; higher = more nucleation; inactive = no reads after selection
Is amyloid nucleation score at least 0.3? Then 1 (yes). If not, 0 (no).

Here's what some known entries look like.
>  <SUBSTANCE>
SFAVHVGVANSSGSCLMLGG

>  <CLASSIFICATION>
0 (no)

$$$$
>  <SUBSTANCE>
MDSCFVLAHVAGNRMVLWNA

>  <CLASSIFICATION>
0 (no)

$$$$
>  <SUBSTANCE>
MWHGSVTMGGIRGTRDSVHQ

>  <CLASSIFICATION>
1 (yes)

$$$$
>  <SUBSTANCE>
STLPMHRNMTLRRLSCVQSY

>  <CLASSIFICATION>
0 (no)

$$$$
>  <SUBSTANCE>
VFLACNMMYDTKVQTHGYRG

>  <CLASSIFICATION>
1 (yes)

$$$$

Lookup: Evaluate NFKVYPSGCKEECAYVLLSL : amyloid nucleation score at minimum 0.3?
Found: 1 (yes)

Lookup: Determine whether this substance has amyloid nucleation score no lower than 0.3: GFTGFNRIGVLVGWKCN
Found: 1 (yes)

Lookup: Check this substance for amyloid nucleation score at or above 0.3: SEYAVNSGSITFFIHAVWCW
Found: 1 (yes)

Lookup: Does LDYSSRSPLTDLST have a reported amyloid nucleation score of at least 0.3?
Found: 0 (no)

Lookup: Kindly determine if amyloid nucleation score recorded for SFFWDT is above or exactly 0.3.
Found: 0 (no)

Lookup: hey, is amyloid nucleation score for this one >= 0.3? KMSVRNVTDFGVRLVRYFNG
Found: 1 (yes)

Lookup: Determine whether measured amyloid nucleation score meets or exceeds 0.3 for VSEFGFIVF
Found: 0 (no)

Lookup: Evaluate VSTNSDSLLGNCRKNPVHPS : amyloid nucleation score at minimum 0.3?
Found: 1 (yes)

Lookup: Kindly determine if amyloid nucleation score recorded for PLLMGEEFRYSFSLCYNTSS is above or exactly 0.3.
Found: 0 (no)

Lookup: Is amyloid nucleation score for MGYRDNLSF at or above 0.3?
Found: 1 (yes)

Lookup: Could you verify whether the entry GCNSMTRLLRGAWPPPYWRG shows amyloid nucleation score of no less than 0.3?
Found: 0 (no)

Lookup: Item KYKRSYTLDHVFYMSSPGVR with amyloid nucleation score of 0.3 or above?
Found: 1 (yes)

Lookup: For this substance, is measured amyloid nucleation score 0.3 or higher? RSKNWMVNRDWGSKVDRLAN
Found: 0 (no)

Lookup: # bool: amyloid nucleation score of TRVASQDARTDP >= 0.3
Found: 0 (no)

Lookup: // inclusive: amyloid nucleation score at least 0.3? input: ILLYVICQVVTTV
Found: 1 (yes)

Lookup: Would you say AGRIETIEIGSSCLSVCGGY shows amyloid nucleation score at minimum 0.3?
Found: 1 (yes)

Lookup: Assess whether reported amyloid nucleation score for WRMCSHCVLPHSMFSDSNTV sits at 0.3 or higher.
Found: 0 (no)

Lookup: Can ENRQIWCANGNVVGGTALGV be said to have amyloid nucleation score at or above 0.3?
Found: 1 (yes)

Lookup: Is it the case that IGSVDALKVVDVAMCVPT has amyloid nucleation score reaching or exceeding 0.3?
Found: 1 (yes)

---

PROTOCOL_SUMMARY: amyloid nucleation score (Sup35N fusion, yeast selection) (log enrichment); library NNK2; higher = more nucleation; inactive = no reads after selection
So basically: amyloid nucleation score at 0.5 or higher? That is yes. Lower than 0.5? That is no.

Solved cases below.
>  <SEQUENCE_CODE>
YGHLRVWKIPS

>  <CLASSIFICATION>
yes

$$$$
>  <SEQUENCE_CODE>
VMFTGHCVTRNDRDRLVLTY

>  <CLASSIFICATION>
no

$$$$
>  <SEQUENCE_CODE>
KSVSVGQVRTCPYSFISPVL

>  <CLASSIFICATION>
no

$$$$

Lookup: Does the reported amyloid nucleation score for CRCISVPCVVFVV fall at or above the 0.5 mark?
Found: no

Lookup: Decide: is the reported value of amyloid nucleation score for KGMNCVCACAINRPYSIVLQ equal to or greater than 0.5?
Found: yes

Lookup: Please indicate if the recorded amyloid nucleation score for AWTAETFKVLCVVMSY meets or exceeds 0.5.
Found: no

Lookup: Confirm if amyloid nucleation score reported for the sequence LIIDSGYPSGS is 0.5 or above.
Found: no

---

PROTOCOL_SUMMARY: amyloid nucleation score (Sup35N fusion, yeast selection) (log enrichment); library NNK2; higher = more nucleation; inactive = no reads after selection
ASSAY_METRIC: amyloid nucleation score
One number for each entry.

>  <SUBSTANCE>
YEIFGRTNPMMVDKNNAIWV

>  <amyloid nucleation score>
-0.691

$$$$
>  <SUBSTANCE>
VKLEMD

>  <amyloid nucleation score>
-0.617

$$$$
>  <SUBSTANCE>
VMVDMGGWHEAWLVTSIRWS

>  <amyloid nucleation score>
0.889

$$$$
>  <SUBSTANCE>
GFLGCESREKEECSIKERLC

>  <amyloid nucleation score>
-0.515

$$$$
>  <SUBSTANCE>
VKYVIIEHFNWSVSCCAYLR

>  <amyloid nucleation score>
1.37

$$$$
>  <SUBSTANCE>
SCYDVCPLCSHCRIGTKM

>  <amyloid nucleation score>
1.92

$$$$
>  <SUBSTANCE>
RFYVGTIFSPYILLSSTECM

>  <amyloid nucleation score>
3.82

$$$$
>  <SUBSTANCE>
SQISYEWDATIHQWLCKWFW

>  <amyloid nucleation score>
8.36

$$$$

Need amyloid nucleation score for each of these substances.
1. NSLHSDSVLIKERDADKSTR
2. CRINFTFDELVVVSQILTWL
3. TGRLSIVAKNYWGHSVRAFS
4. NFMYRSSMFMHL
5. CNSYEYLRN
6. NALGRMCGSWRLVIHISDWW
7. RQEFNCIASCRF

Found:
1.73
4.07
0.001
4.74
-0.035
0.236
2.12

Lookup: Any idea what amyloid nucleation score was measured for RLGPSSWSWHL ?
Found: 1.52
